assay-details: Plasma pharmacokinetics of SAHA and its two major metabolites (LC-MS/MS) in the phase I study
Type: in vivo, human
cond: human, plasma, po, oral SAHA, patients, plasma, Example 8; read-out: t1/2 (elimination half life) (converted)
endpoint: half-life

>  <molecule>
O=C(O)CCC(=O)Nc1ccccc1

>  <half-life>
~6 h

$$$$

Then this molecule:
Give reported half-life value for O=C(CCCCCCC(=O)Nc1ccccc1)NO [SAHA, N-Hydroxy-N′-phenyl octanediamide]
1.6 h
